Target: T1, hUCN1 (NT Biotin) (human, UniProt P55089 83-122, biotin at the N-terminus)
T1 construct: also called human UCN1 (NT biotin)
T1 peptide (looked up): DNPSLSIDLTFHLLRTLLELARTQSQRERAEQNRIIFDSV
Test: ELISA, biotin peptide on streptavidin plate
Assay endpoint: EC50 (nM)
Write it as a number; the unit nM goes unstated.

Some entries whose results are on file:
{"Binder": "PR302309-11 (antibody, human IgG1, kappa, V domains shown, Humanized variant of PR302309) VH: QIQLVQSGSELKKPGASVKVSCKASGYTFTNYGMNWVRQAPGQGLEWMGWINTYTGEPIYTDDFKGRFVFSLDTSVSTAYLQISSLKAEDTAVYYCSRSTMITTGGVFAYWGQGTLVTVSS VL: DIVMTQTPLSSPVTLGQPASISCRSSQTIVHSDGNTYLEWLQQRPGQPPRLLIYKVSNRFSGVPDRFSGSGAGTDFTLKISRVEAEDVGVYYCFQGSHVPWTFGGGTKVEIKR", "Unit name": "nM", "EC50": 0.078}
{"Binder": "PR303394 (antibody, human IgG1, kappa, V domains shown, also called analog of CTRND05) VH: EVQLQQSGPELVKPGVSMKISCKASGYSFTDSTMNWVKQSHGKNLEWIGLIHPDNGGTIYNQKFKGKATLTVHKSSSTAYMELLSLTSEDSAVYYCANGFAYWGQGTLVTVSA VL: DVVMTQTPLSLPVSLGDQASISCRSSQSLLHSNGNTYLHWYLQKPGQSPELLIYKVSNRFSGVPDRFSGSGSGTDFTLKISRVEAEDLGVYFCSQSTHVPLTFGAGTKLELKR", "Unit name": "nM", "EC50": 0.018}

Switching to the query record.
Quick check: EC50 of PR005660 (antibody, human IgG1, kappa, V domains shown, PTM-removal variant of PR004290) VH: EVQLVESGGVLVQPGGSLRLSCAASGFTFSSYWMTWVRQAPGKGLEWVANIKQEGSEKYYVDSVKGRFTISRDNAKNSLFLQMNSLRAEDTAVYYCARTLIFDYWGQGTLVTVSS VL: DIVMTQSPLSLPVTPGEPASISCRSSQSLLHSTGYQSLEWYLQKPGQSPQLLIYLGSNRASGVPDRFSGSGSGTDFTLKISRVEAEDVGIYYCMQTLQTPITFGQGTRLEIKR ? 9.37
